System: MAP2K6 (human), P52564 [S207E/T211E]
Sequence (P52564 whole entry S207E/T211E, looked up): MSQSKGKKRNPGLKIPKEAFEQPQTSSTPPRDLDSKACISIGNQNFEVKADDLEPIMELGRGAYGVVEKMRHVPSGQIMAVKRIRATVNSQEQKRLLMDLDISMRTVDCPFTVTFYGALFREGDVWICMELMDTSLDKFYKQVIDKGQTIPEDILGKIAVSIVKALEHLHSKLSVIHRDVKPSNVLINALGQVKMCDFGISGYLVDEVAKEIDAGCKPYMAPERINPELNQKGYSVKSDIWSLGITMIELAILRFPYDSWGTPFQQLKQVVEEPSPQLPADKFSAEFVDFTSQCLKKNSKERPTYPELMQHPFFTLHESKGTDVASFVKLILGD
Experiment: radiometric filter-binding kinase assay, Kinase HotSpot
Details: compound 0.5 µM; ATP 10 µM
READOUT_NAME: residual activity (%)
Give a bare numeral; the unit % is implied.

Example entries begin here.
*Q* Dear colleague, I am looking for the recorded residual activity of the following molecule: O=C1NC(=O)C(c2c[nH]c3ccccc23)=C1c1c[nH]c2ccccc12
*A* 98

*Q* Same question for Cc1ccc(NC2=CC(=O)c3sc(C)nc3C2=O)cc1 please.
*A* 90.4

*Q* Same question for N/C(=N\N=C/c1ccc(-c2cccc([N+](=O)[O-])c2)o1)N[N+](=O)[O-] please.
*A* 111

*Q* Same question for CCCNC(=O)Nc1ccc(Oc2ncnc3cc(OC)c(OC)cc23)cc1Cl please.
*A* 106

*Q* Same question for O=C1NC(=O)C(c2cn(CCCn3ccnc3)c3ccccc23)=C1Nc1ccccc1 please.
*A* 103

---
*Q* Dear colleague, I am looking for the recorded residual activity of the following molecule: O=c1cc(-c2cccc3c2Sc2ccccc2S3)oc(N2CCOCC2)c1
*A* 107

*Q* Same question for COc1ccc(C(=O)Nc2sc3c(c2C(N)=O)CCCC3)cc1OC please.
*A* 114

---

Molecular target: RPS6KA3 KD1 KD2 (human) (UniProt P51812)
Sequence (P51812 whole entry, looked up): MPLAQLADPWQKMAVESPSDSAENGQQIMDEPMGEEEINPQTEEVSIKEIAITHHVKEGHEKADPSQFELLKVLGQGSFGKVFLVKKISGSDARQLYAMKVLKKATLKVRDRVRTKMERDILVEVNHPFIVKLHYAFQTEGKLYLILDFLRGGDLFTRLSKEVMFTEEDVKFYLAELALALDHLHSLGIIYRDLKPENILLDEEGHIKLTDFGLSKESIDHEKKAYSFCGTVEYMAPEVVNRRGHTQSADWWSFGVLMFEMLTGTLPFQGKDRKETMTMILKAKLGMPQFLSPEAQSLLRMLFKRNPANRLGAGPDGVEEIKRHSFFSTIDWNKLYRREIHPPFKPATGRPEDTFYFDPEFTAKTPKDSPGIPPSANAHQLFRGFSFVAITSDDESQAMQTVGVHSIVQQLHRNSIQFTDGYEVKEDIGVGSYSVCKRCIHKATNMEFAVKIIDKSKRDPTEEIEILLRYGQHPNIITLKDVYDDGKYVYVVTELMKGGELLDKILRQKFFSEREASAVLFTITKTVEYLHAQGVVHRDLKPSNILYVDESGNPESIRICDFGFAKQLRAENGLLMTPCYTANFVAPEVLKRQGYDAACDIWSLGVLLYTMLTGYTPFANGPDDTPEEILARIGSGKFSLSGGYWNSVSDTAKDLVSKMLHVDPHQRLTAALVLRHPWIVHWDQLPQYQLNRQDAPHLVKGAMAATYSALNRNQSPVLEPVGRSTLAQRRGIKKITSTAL
Assay: radiometric filter-binding kinase assay, Kinase HotSpot
Conditions: compound 0.5 µM; ATP 10 µM
Each entry below carries its recorded residual activity.
Give a bare numeral; the unit % is implied.

*Q* For the record Ic1cccc(CSc2nnc(-c3ccncc3)o2)c1 , what value of residual activity is listed for RPS6KA3 KD1 KD2 (human) (UniProt P51812)?
*A* 96.4

*Q* Same question for NC(=O)c1cccc(-c2cc(Nc3ccc(OC(F)(F)F)cc3)ncn2)c1 please.
*A* 101

*Q* Same question for c1ccc2c(-c3ccncc3)c[nH]c2c1 please.
*A* 97.4

*Q* Same question for N#C/C(=C\c1ccc(O)c(O)c1)C(=O)NCc1ccccc1 please.
*A* 100

*Q* Same question for CO[C@@H]1[C@H](N(C)C(=O)c2ccccc2)C[C@H]2O[C@]1(C)n1c3ccccc3c3c4c(c5c6ccccc6n2c5c31)C(=O)NC4 please.
*A* 3.19

*Q* Same question for COc1ccc(C(=O)Nc2sc3c(c2C(N)=O)CCCC3)cc1OC please.
*A* 93

*Q* Same question for O=C1Nc2ccc(Br)cc2/C1=C\c1cc2c([nH]1)CCCC2 please.
*A* 80.9

*Q* Same question for COc1ccc(Cl)cc1NC(=O)Nc1cc(C)nc2ccccc12 please.
*A* 96.2

---
*Q* For the record CN(C)c1ccc(/C=C2\C(=O)Nc3ccccc32)cc1 , what value of residual activity is listed for RPS6KA3 KD1 KD2 (human) (UniProt P51812)?
*A* 92.6

*Q* Same question for N#Cc1c[nH]c2c[nH]/c(=N\Cc3cccnc3)cc2/c1=N\c1ccc(F)c(Cl)c1 please.
*A* 99.1

*Q* Same question for CC(C)(C)c1cc(C=C(C#N)C#N)cc(Br)c1O please.
*A* 92.2

---

Target: CSNK1G2 (human) (UniProt P78368)
Sequence (P78368 whole entry, looked up): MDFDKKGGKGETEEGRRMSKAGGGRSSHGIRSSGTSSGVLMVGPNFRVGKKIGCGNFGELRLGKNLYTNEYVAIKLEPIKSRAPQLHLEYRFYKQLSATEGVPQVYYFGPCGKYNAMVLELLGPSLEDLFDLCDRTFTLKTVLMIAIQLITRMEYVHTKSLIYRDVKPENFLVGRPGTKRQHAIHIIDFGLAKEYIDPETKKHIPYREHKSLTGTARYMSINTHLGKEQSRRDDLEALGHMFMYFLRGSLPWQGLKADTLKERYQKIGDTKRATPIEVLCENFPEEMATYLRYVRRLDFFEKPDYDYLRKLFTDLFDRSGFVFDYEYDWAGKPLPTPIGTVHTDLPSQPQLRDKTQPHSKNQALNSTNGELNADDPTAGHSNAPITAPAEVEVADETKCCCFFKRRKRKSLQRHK
Test: radiometric filter-binding kinase assay, Kinase HotSpot
Settings: compound 0.5 µM; ATP 10 µM
Each entry below carries its recorded residual activity.
Give a bare numeral; the unit % is implied.

Example entries begin here.
*Q* For the record N#C/C(=C\c1ccc(O)c(O)c1)C(=O)NCc1ccccc1 , what value of residual activity is listed for CSNK1G2 (human) (UniProt P78368)?
*A* 106

*Q* Same question for CN(C)c1ccc(/C=C2\C(=O)Nc3ccccc32)cc1 please.
*A* 96.7

*Q* Same question for Fc1ccc(-c2nc3n(c2-c2ccncc2)CCS3)cc1 please.
*A* 76.4

Now look at this one.
*Q* For the record CN(C)S(=O)(=O)c1ccc2c(c1)/C(=C/c1cc3c([nH]1)CCCC3)C(=O)N2 , what value of residual activity is listed for CSNK1G2 (human) (UniProt P78368)?
*A* 93.8
